These measurements were taken from ChEMBL document CHEMBL3797102.

Biological target: hERG (KCNH2) F656A mutant (Homo sapiens, UniProt Q12809, F656A)
Sequence (Q12809 whole entry F656A): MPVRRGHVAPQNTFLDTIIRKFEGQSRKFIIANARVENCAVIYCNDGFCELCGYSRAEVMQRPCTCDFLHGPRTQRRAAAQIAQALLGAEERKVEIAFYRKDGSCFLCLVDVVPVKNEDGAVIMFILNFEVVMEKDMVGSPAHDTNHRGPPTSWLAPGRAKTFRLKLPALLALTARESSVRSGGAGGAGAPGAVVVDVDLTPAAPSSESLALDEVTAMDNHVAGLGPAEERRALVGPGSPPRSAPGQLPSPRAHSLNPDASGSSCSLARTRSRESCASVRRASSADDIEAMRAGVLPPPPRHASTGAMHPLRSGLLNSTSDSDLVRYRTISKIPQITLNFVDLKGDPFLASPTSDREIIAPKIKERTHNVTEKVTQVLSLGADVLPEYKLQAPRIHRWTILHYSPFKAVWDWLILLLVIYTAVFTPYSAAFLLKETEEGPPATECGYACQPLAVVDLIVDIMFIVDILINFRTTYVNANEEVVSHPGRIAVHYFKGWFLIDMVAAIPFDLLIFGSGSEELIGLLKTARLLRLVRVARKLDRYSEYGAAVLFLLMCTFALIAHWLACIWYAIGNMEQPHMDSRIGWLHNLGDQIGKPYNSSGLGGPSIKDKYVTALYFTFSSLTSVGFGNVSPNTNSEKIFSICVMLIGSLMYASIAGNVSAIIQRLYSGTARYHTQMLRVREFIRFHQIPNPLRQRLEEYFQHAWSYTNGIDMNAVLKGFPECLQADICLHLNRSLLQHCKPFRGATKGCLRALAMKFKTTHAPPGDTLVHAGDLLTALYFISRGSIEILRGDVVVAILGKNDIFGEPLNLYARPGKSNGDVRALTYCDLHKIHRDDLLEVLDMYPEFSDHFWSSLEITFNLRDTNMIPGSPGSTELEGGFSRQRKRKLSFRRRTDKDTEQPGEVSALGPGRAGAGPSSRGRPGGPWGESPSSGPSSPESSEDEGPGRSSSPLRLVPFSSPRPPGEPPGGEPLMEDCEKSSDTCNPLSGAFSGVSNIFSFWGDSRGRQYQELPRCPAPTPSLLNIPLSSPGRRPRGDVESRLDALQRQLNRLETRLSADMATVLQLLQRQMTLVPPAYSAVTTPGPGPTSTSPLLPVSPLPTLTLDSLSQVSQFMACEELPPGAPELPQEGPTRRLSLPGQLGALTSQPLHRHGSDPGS
Test: Inhibition of human ERG channel F656A mutant expressed in Xenopus laevis oocytes assessed as use dependent suppression of tail current at 150 uM at -140 mV by two-electrode voltage clamp method
Type: cell-based
quantityName: inhibition at 150 µM (%)
Respond with the bare value in %.

## Task Value lookup for inhibition at 150 µM; key = O=C(CCc1ccccc1)c1ccccc1OCC(O)CN1CCN(C(c2ccccc2)(c2ccccc2)c2ccccc2)CC1 (stereo unspecified)
## Result 18.3

----------
Target: hERG (KCNH2) Y652A mutant (Homo sapiens, UniProt Q12809, Y652A)
Sequence (Q12809 whole entry Y652A): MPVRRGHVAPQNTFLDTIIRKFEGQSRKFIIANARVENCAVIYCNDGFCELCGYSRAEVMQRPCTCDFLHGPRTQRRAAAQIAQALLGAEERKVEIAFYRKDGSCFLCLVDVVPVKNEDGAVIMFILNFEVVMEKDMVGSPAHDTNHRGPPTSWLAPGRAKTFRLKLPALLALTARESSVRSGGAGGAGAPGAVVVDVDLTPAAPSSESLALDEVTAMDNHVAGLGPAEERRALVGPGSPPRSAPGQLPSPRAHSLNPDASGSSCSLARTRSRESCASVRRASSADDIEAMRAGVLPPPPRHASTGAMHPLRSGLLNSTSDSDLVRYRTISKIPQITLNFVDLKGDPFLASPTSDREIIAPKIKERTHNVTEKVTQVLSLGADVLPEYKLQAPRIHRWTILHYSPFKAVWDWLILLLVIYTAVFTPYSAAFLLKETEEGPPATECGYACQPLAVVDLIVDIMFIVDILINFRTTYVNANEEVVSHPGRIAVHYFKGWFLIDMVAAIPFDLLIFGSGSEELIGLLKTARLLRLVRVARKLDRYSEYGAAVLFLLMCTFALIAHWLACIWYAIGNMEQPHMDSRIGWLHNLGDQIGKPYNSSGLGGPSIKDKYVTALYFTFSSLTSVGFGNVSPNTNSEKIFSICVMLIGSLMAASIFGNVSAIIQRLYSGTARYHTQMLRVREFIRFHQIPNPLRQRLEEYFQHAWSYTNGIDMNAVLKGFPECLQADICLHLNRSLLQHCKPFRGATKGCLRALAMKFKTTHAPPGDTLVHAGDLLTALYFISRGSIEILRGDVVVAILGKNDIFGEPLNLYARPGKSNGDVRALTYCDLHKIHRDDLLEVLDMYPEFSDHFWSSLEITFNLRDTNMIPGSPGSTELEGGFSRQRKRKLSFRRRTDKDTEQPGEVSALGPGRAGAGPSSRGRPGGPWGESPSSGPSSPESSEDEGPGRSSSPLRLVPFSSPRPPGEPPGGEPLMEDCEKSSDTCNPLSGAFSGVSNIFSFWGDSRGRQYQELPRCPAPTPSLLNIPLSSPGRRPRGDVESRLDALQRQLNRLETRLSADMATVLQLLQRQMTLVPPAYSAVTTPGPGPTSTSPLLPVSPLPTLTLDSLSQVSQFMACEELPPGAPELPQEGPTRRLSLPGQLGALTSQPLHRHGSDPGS
Experiment: Inhibition of human ERG channel Y652A mutant expressed in Xenopus laevis oocytes assessed as use dependent suppression of K+ current at 150 uM at 1 Hz equilibrated for 5 mins by two-electrode voltage clamp method
Type: cell-based
quantityName: inhibition at 5 min, 150 µM (%)
Respond with the bare value in %.

## Task Value lookup for inhibition at 5 min, 150 µM; key = O=C(CCc1ccccc1)c1ccccc1OCC(O)CN1CCN(C(c2ccccc2)(c2ccccc2)c2ccccc2)CC1 (stereo unspecified)
## Result 13.2
